// provenance: patent US20030114402A1

target: DCMTase (Mus musculus); construct: DCMTase was purified from mouse erythroleukemia cells as previously described; endogenous in cells; host or cells: mouse erythroleukemia (MEL) cells; enzyme purified from them; assay: Dead-end inhibition of poly(dI.dC:dI.dC) methylation by single-stranded DNA; assay type: biochemical; conditions: read-out: KI, dissociation constant from the DCMTase:poly(dI.dC:dI.dC) complex
Sequence (P13864 whole entry): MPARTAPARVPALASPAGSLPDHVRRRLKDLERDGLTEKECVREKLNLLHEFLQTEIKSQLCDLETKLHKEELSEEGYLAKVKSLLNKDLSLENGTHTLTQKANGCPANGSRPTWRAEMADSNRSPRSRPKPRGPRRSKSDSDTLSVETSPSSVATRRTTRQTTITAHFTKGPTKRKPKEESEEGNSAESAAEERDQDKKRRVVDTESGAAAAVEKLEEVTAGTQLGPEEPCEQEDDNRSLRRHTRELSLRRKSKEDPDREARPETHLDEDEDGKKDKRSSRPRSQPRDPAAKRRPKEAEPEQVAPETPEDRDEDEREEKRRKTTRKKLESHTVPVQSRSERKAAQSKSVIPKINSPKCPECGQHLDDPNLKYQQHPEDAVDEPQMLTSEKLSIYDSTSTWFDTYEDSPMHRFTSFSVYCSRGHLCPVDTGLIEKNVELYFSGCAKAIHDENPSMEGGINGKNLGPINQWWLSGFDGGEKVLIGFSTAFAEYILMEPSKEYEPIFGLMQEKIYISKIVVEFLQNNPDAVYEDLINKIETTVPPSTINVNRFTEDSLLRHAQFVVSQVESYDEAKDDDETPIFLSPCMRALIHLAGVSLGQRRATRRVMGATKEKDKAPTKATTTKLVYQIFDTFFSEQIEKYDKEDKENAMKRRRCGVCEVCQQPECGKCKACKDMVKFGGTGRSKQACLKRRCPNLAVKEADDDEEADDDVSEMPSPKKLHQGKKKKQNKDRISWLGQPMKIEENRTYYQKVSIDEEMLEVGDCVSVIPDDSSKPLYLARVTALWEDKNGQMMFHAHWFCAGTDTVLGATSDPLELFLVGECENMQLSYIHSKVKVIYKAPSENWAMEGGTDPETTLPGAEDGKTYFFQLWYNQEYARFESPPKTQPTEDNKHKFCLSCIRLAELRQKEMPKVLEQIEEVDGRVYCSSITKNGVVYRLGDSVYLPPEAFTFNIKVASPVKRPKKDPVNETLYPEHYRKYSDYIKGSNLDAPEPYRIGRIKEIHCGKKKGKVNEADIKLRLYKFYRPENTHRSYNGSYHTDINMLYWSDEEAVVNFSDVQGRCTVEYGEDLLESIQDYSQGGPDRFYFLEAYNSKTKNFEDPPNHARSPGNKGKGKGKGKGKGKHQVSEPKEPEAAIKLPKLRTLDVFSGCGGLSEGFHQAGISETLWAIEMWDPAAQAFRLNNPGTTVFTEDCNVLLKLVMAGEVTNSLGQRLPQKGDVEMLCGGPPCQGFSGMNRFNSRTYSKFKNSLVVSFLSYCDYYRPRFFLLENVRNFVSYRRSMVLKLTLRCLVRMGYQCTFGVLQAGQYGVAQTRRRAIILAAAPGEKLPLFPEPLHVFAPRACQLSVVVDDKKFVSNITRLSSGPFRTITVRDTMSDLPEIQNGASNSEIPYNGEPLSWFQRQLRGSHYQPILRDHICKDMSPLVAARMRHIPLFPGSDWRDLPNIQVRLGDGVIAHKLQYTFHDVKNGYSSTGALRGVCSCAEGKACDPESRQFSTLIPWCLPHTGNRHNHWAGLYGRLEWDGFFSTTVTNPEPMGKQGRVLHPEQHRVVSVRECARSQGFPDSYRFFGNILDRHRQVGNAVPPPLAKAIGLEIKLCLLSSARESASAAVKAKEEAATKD
pKi: −log10 of the molar value. [5mC] = 5-methylcytosine
observedProperty: pKi

- 5′-CTGGATCCTTGCCC^mCGCCCCTTGAATTCCC-3′ (DNA CTGGATCCTTGCCCCGCCCCTTGAATTCCC; DNA, [5mC] at 15, backbone not given here) [GC-box b^MET]: 8.60
